These entries and their values trace back to ChEMBL document CHEMBL3228010.

System: Mus musculus
Assay: Toxicity in ip dosed C3H X DBA2 F1 hybrid mouse […] with mouse L1210 cells on day 0 and dosed once daily on days 1 to 5 measured after 50 days
Type: organism-based
Conditions: in vivo, 1200 h
Kindly state log10 of LD10 for each of the entries shown.
Scale type: logarithmic (base 10). Underlying LD10 unit: mg/kg.

input: Fill in the blank: the reported log10 of LD10 of CC[n+]1ccc(Nc2ccc(NC(=O)CCCCCCC(=O)Nc3ccc(Nc4cc[n+](CC)cc4)cc3)cc2)cc1.[Br-].[Br-] is ____.
output: 1.00

input: Given the molecule CC[n+]1cc(-c2ccc(NC(=O)c3ccc(Nc4cc[n+](CC)c5ccccc45)cc3)cc2)c(N)nc1N.[I-].[I-] , what is its reported log10 of LD10?
output: 1.51

input: Give its log10 of LD10 value. Item: CC[n+]1ccc(Nc2ccc(NC(=O)c3ccc(Nc4cc[n+](CC)c5ccccc45)cc3N)cc2N)cc1.[I-].[I-]
output: 1.30

input: Need log10 of LD10 of C[n+]1cccc2ccc(NC(=O)c3ccc(-c4ccc(-c5ccc(-c6ccc(C(=O)Nc7ccc8ccc[n+](C)c8c7)cc6)cc5)cc4)cc3)cc21.Cc1ccc(S(=O)(=O)[O-])cc1.Cc1ccc(S(=O)(=O)[O-])cc1 , thanks.
output: 1.72

input: What measured log10 of LD10 goes with CCCC[n+]1cccc2cc(NC(=O)/C=C/c3ccc(C(=O)Nc4ccc5c(ccc[n+]5CCCC)c4)cc3)ccc21.Cc1ccc(S(=O)(=O)[O-])cc1.Cc1ccc(S(=O)(=O)[O-])cc1 ?
output: 1.40

input: Look up log10 of LD10 for this molecule: CC[n+]1cccc(NC(=O)c2ccc(NC(=O)c3ccc(C(=O)Nc4ccc(C(=O)Nc5ccc[n+](CC)c5)cc4)c(C)c3)cc2)c1.Cc1ccc(S(=O)(=O)[O-])cc1.Cc1ccc(S(=O)(=O)[O-])cc1
output: 1.41

input: Could you share which log10 of LD10 value was measured for CCCCC[n+]1cccc2cc(NC(=O)COc3ccc(C(=O)Nc4ccc5c(ccc[n+]5CCCCC)c4)cc3)ccc21.Cc1ccc(S(=O)(=O)[O-])cc1.Cc1ccc(S(=O)(=O)[O-])cc1 ?
output: 2.18

input: # log10 of LD10 lookup, item CCC[n+]1ccc(-c2ccc(NC(=O)c3ccc(Nc4cc[n+](CCC)c5ccccc45)cc3)cc2)cc1.[Br-].[Br-]
output: 0.68

input: Quick one: log10 of LD10 for C[n+]1cccc(NC(=O)c2ccc(NC(=O)c3ccc(C(=O)Nc4ccc(C(=O)Nc5ccc[n+](C)c5)cc4)c(N)c3)cc2)c1.Cc1ccc(S(=O)(=O)[O-])cc1.Cc1ccc(S(=O)(=O)[O-])cc1 ?
output: 1.30

input: Which measured log10 of LD10 value corresponds to C[n+]1cccc(NC(=O)c2ccc(NC(=O)c3ccc(C(=O)Nc4ccc(Nc5cc[n+](C)c6ccc(N)cc56)cc4)cc3)cc2)c1.Cc1ccc(S(=O)(=O)[O-])cc1.Cc1ccc(S(=O)(=O)[O-])cc1 ?
output: 2.15

input: Any idea what its log10 of LD10 is? The molecule is CC[n+]1ccc(Nc2ccc(NC(=O)c3ccc(Nc4cc[n+](CC)c5ccccc45)cc3)cc2N)cc1.[I-].[I-]
output: 1.00

input: I'd like to know its log10 of LD10. The molecule in question is C[n+]1cccc2cc(NC(=O)c3ccc(C(=O)Nc4ccc(NC(=O)c5ccc6c(ccc[n+]6C)c5)cc4)cc3)ccc21.Cc1ccc(S(=O)(=O)[O-])cc1.Cc1ccc(S(=O)(=O)[O-])cc1
output: 1.95

input: Please look up its log10 of LD10: CCC[n+]1cccc2cc(NC(=O)c3ccc(C(=O)Nc4ccc5c(ccc[n+]5CCC)c4)c(N)c3)ccc21.Cc1ccc(S(=O)(=O)[O-])cc1.Cc1ccc(S(=O)(=O)[O-])cc1
output: 1.00

input: Item CC[n+]1ccc(Nc2ccc(NC(=O)c3ccc(Nc4cc[n+](CC)c5ccccc45)cc3)cc2)cc1.[Br-].[Br-] has what recorded log10 of LD10?
output: 1.18

input: Suppose we examine the molecule C[n+]1cccc(NC(=O)c2ccc(NC(=O)c3ccc(C(=O)Nc4ccc(C(=O)Nc5ccc[n+](C)c5)c(N)c4)cc3)cc2N)c1.Cc1ccc(S(=O)(=O)[O-])cc1.Cc1ccc(S(=O)(=O)[O-])cc1 ; what log10 of LD10 value has been reported?
output: 1.64

input: Looking for the measured log10 of LD10 of CCC[n+]1cccc2cc(NC(=O)c3ccc(C(=O)Nc4ccc5c(ccc[n+]5CCC)c4)nc3)ccc21.Cc1ccc(S(=O)(=O)[O-])cc1.Cc1ccc(S(=O)(=O)[O-])cc1 , can you help?
output: 1.20

input: Value lookup for log10 of LD10; key = Cc1c(C(=O)Nc2ccc(C(=O)Nc3ccc[n+](C)c3)cc2)ccc(C(=O)Nc2ccc(C(=O)Nc3ccc[n+](C)c3)cc2)c1C.Cc1ccc(S(=O)(=O)[O-])cc1.Cc1ccc(S(=O)(=O)[O-])cc1
output: 1.28

input: Look up log10 of LD10 for this molecule: C[n+]1c2ccccc2c(Nc2ccc(NC(=O)Nc3ccc(NC(=N)NC(=N)N)cc3)cc2)c2ccc(N)cc21.Cl.[Cl-]
output: 2.30

input: Look up log10 of LD10: C[n+]1ccc(Nc2ccc(NC(=O)c3ccc(Nc4cc[n+](C)c5ccccc45)cc3)cc2)cc1.[Br-].[Br-]
output: 1.11

input: Given the entry Cc1cc(Nc2ccc(C(=O)Nc3ccc(Nc4cc[n+](C)cc4)cc3)c(N)c2)c2cc(N)ccc2[n+]1C.[I-].[I-] , report its measured log10 of LD10.
output: 2.04

input: Query: log10 of LD10; subject: CC[n+]1ccc(Nc2ccc(NC(=O)c3ccc(C(=O)Nc4ccc(Nc5cc[n+](CC)c(N)n5)cc4)cc3)cc2)nc1N.Cc1ccc(S(=O)(=O)[O-])cc1.Cc1ccc(S(=O)(=O)[O-])cc1
output: 2.05

input: May I ask what log10 of LD10 has been recorded for CC[n+]1cccc2cc(NC(=O)c3ccc(NC(=O)c4ccc(C(=O)Nc5ccc6c(ccc[n+]6CC)c5)cc4)cc3)ccc21.Cc1ccc(S(=O)(=O)[O-])cc1.Cc1ccc(S(=O)(=O)[O-])cc1 ?
output: 1.65

input: Could you tell me which log10 of LD10 is on file for Cc1cc(C(=O)Nc2ccc(C(=O)Nc3ccc[n+](C)c3)cc2)c(C)cc1C(=O)Nc1ccc(C(=O)Nc2ccc[n+](C)c2)cc1.Cc1ccc(S(=O)(=O)[O-])cc1.Cc1ccc(S(=O)(=O)[O-])cc1 ?
output: 0.23
